Test system: MDA-MB-435
ASSAY_COMMENT: NCI tumour cell line growth inhibition, 48 h
Activity calls are given as the source filed them. Cut-off read from the data, not from the text of the source: active = GI50 up to about 1.1 µM and inactive = higher. Square brackets hold non-standard residues; d marks the D form. Peptide text beside a SMILES is read from it. * marks the point of attachment. Phe(4-NO2) = N[CH](Cc1ccc([N+](=O)[O-])cc1)C(=O)O; Cbz = O=C(OCc1ccccc1)*
Collected GI50 values appear next to each entry.

COc1ccc(/C=C2\CCC(Cc3ccccc3)(CN(C)C)C2=O)cc1 (stereo unspecified)    32.1 µM (inactive)

The molecule identified as "Cc1cc2c(cc1Cl)SC(N/N=C(\N)c1ccc(Cl)cc1)=NS2(=O)=O" registered its GI50 at 61.8 µM (inactive)

The molecule identified as COc1ccc(C2SCC(=O)N2c2ccc(-c3ccc(-n4c(-c5ccccc5)nc5ccccc5c4=O)cc3)cc2)cc1 (stereo unspecified) registered its GI50 at 49.7 µM (inactive)

The molecule identified as "CN(C)Cc1cc(C(=O)/C=C/c2ccc(Cl)cc2)cc(CN(C)C)c1O" registered its GI50 at 13.7 µM (inactive)

The molecule identified as "CC(=O)Oc1c2c(c3n(c1=O)CCCC3)C(=O)N(c1ccccc1)C2=O" registered its GI50 at 46.9 µM (inactive)

The molecule identified as CCOC(=O)CCC(NC(=O)OCc1ccccc1)C(=O)NC(CCC(=O)OCC)C(=O)NC(CCC(=O)OCC)C(=O)NC(CCC(=O)OCC)C(=O)NC(CCC(=O)OCC)C(=O)NC(Cc1ccc([N+](=O)[O-])cc1)C(=O)NC(CCC(=O)OCC)C(=O)NC(CCC(=O)OCC)C(=O)NC(CCC(=O)OCC)C(=O)NC(CCC(=O)OCC)C(=O)NC(CCC(=O)OCC)C(=O)OCC (stereo unspecified) (Cbz-E(OEt)E(OEt)E(OEt)E(OEt)E(OEt)[Phe(4-NO2)]E(OEt)E(OEt)E(OEt)E(OEt)E(OEt)-OEt; configuration not given here) registered its GI50 at > 50 µM (inactive)
